molecular target: DNA dC->dU-editing enzyme APOBEC-3F (Homo sapiens) (UniProt Q8IUX4); experiment: qHTS for inhibitors of Vif-A3F interactions: Cherry picks counterscreen; details: HeLa A3F-eYFP/Vif cells, eYFP fluorescence, 24 h; series mostly up to 46.1 µM; further: nearly all actives have a fitted effect of over 65% in size
Sequence (Q8IUX4 whole entry, looked up): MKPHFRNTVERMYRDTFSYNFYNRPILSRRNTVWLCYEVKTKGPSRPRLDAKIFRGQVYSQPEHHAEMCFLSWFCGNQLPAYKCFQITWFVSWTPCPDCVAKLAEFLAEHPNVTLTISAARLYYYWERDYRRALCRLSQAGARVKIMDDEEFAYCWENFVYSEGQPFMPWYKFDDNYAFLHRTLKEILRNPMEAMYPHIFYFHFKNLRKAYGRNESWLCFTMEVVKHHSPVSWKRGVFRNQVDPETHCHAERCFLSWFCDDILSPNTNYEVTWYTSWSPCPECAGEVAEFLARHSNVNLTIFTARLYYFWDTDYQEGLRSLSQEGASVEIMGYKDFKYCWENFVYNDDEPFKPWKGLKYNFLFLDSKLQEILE
Hit rate of the full screen: of about 2,100 compounds, about 1,100 (52%) were called active. Another 29% or so got no clear call; they are omitted. The call rests on the fitted dose curve; in most records, active means well fitted inhibition curve with a large enough effect; inconclusive means small, poorly fitted or top-dose-only effect; inactive means no such curve, though single readings can be large or run the other way. The set was probably picked from earlier hits. The list shows a part of the results.
Your answer must be one of the following: Yes for active, No for inactive

Enquiry: Outcome? C=C(C(=O)c1ccccc1)C(C(=C)C(=O)c1ccccc1)c1ccc(OC)cc1
Return: Yes

Enquiry: Outcome? CC[N+](C)(C(=O)O)/C(=C\c1ccccc1)c1ccnc2ccccc12 (stereo not given)
Return: Yes

Enquiry: Outcome? Cc1cc(Br)ccc1SCC(=O)OC/C(O)=C(\C#N)c1nc2ccccc2[nH]1
Return: No

Enquiry: Outcome? Cc1cc(/C=C2\SC(=S)N(C)C2=O)c(C)n1-c1ccc(O)cc1
Return: Yes

Enquiry: Outcome? CCCCN(C(=O)c1ccc([N+](=O)[O-])s1)c1c(N)n(CCCC)c(=O)[nH]c1=O
Return: No

Enquiry: Outcome? COc1cc(OC)c(C2Nc3cccc4cccc(c34)N2)c(OC)c1
Return: No

Enquiry: Outcome? CCCOc1cc(N(CC)CC)ccc1/C=C(/C#N)c1nc2ccc(C)cc2[nH]1
Return: No

Enquiry: Outcome? COc1ccc(-c2cc(-c3cccs3)nc3sc(C#N)c(N)c23)cc1
Return: No

Enquiry: Outcome? N#C/C(=C\c1ccc(Cl)cc1)c1nc2ncccc2[nH]1
Return: Yes

Enquiry: Outcome? CCSc1nnc(-c2sc3nnc(-c4ccccc4)c(-c4ccccc4)c3c2N)o1
Return: Yes

Enquiry: Outcome? COc1ccc2[nH]c(C(=O)N/N=C/c3ccc(OC)c(O)c3)cc2c1
Return: Yes

Enquiry: Outcome? COc1cc(C(=O)NCCOc2cc(C)cc(C)c2)cc(OC)c1OC
Return: Yes

Enquiry: Outcome? COc1cc(Nc2nc3ccccc3n3nnnc23)cc(OC)c1OC
Return: Yes

Enquiry: Outcome? COc1ccc2ccccc2c1C1NC(=O)c2ccccc2N1 (stereo not given)
Return: Yes

Enquiry: Outcome? CCOC(=O)N1CCc2c(sc3c2C(=O)NC(c2ccc(N(C)C)cc2)N3)C1 (stereo not given)
Return: Yes

Enquiry: Outcome? CC(NC(=O)c1ccc(Nc2nc3ccccc3n3nnnc23)cc1)c1ccccc1 (stereo not given)
Return: Yes

Enquiry: Outcome? O=c1c(O)c(-c2cccs2)oc2ccccc12
Return: Yes

Enquiry: Outcome? Cc1ccc2nc(/C(C#N)=C/c3ccc(-c4ccc(F)cc4F)o3)[nH]c2c1
Return: Yes

Enquiry: Outcome? C=CCSc1nc2sc3c(c2c(=O)n1CC)CCC3
Return: No

Enquiry: Outcome? CCc1cccc2c(C(O)c3c[nH]c4ccccc34)c[nH]c12 (stereo not given)
Return: Yes

Enquiry: Outcome? CCN(CC)c1nc2cc(OC)ccc2cc1C#N
Return: No

Enquiry: Outcome? COc1cc(-c2cnc3c(NC(C)=O)cc(-c4ccccc4CN(C)C)cn23)cc(OC)c1OC
Return: Yes

Enquiry: Outcome? COCCN(CCOC)Cc1c(O)ccc2c1O/C(=C\c1ccc(C)o1)C2=O
Return: No

Enquiry: Outcome? CCn1c(SCC(=O)Nc2cccc(O)c2)nc2c1c(=O)n(C)c(=O)n2C
Return: No

Enquiry: Outcome? Cc1nn(-c2ccc(F)cc2)c(Cl)c1/C=C1\C(=O)Nc2ccccc21
Return: Yes

Enquiry: Outcome? CC1Sc2ccc(C(=O)NCc3ccccn3)cc2NC1=O (stereo not given)
Return: No

Enquiry: Outcome? O=C(Cn1cnc2c(cnn2-c2ccc(F)cc2)c1=O)NCc1ccco1
Return: Yes

Enquiry: Outcome? Cc1sc2ncn(CC(=O)NCc3ccccc3)c(=O)c2c1C
Return: No

Enquiry: Outcome? CCCCN1C(=O)C2Cc3c([nH]c4ccccc34)CN2C1=S (stereo not given)
Return: Yes

Enquiry: Outcome? Cc1cc(/C=C2\SC(=S)N(Cc3ccco3)C2=O)c(C)n1-c1cccnc1
Return: Yes

Enquiry: Outcome? COc1ccccc1CNC(=O)c1ccc(Nc2nc3ccccc3n3nnnc23)cc1
Return: Yes

Enquiry: Outcome? CC(C)OC(=O)c1c2c(n3ccccc13)C(=O)c1ccccc1C2=O
Return: Yes

Enquiry: Outcome? CCN1/C(=C/c2cc[n+](C)cc2)C=Cc2cc(C)ccc21
Return: Yes

Enquiry: Outcome? COc1cccc(Cn2c(-c3nonc3N)nc3ccccc32)c1
Return: Yes

Enquiry: Outcome? CCC(=O)Nc1nonc1-c1nc2ccccc2n1Cc1ccccc1
Return: Yes

Enquiry: Outcome? CN(C)CCNc1ccc2ncn3c4ccc(O)cc4c(=O)c1c23
Return: Yes

Enquiry: Outcome? COc1ccc(S(=O)(=O)N2N=C(C)Oc3ccccc3C2=O)cc1
Return: Yes

Enquiry: Outcome? Cc1ccc(CNc2nc3ccc(Cl)cc3n3nnnc23)cc1
Return: Yes

Enquiry: Outcome? Cc1ccc(C2NC(=O)c3ccccc3N2)s1 (stereo not given)
Return: Yes

Enquiry: Outcome? CCOc1ccccc1C1NC(=O)c2ccccc2N1 (stereo not given)
Return: Yes

Enquiry: Outcome? COc1ccc(/C=N/NC(=O)c2cc3c(OC)ccc(OC)c3[nH]2)cc1O
Return: Yes

Enquiry: Outcome? CN(C)c1ccc(C=C2SC(=S)N(Cc3ccco3)C2=O)cc1
Return: Yes

Enquiry: Outcome? CC(C)(C)n1ncc2c(=O)n(CC(=O)NCc3ccc(F)cc3)cnc21
Return: Yes

Enquiry: Outcome? CN(CC(=O)Nc1ccc(Cl)c(C(F)(F)F)c1)C(=O)c1ccc(S(=O)(=O)N2CCOCC2)cc1
Return: Yes

Enquiry: Outcome? CCN1/C(=C/c2ccc3ccccc3[n+]2CC)C=Cc2ccccc21
Return: No
